// data source = the supplement of paper PMC10567573

Recorded protein stability index values for a group of variants are listed next.
B1: PSD2 (parent)
chain: LTHFSRRYCQCNPDDSTSEDGIHT

# Variants of: B1
# procedure details: protein stability index of a GFP-peptide fusion (GPS, HEK-293T) (PSI 1-6); higher = more stable;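 note: lentivirally expressed fusions sorted by FACS into six bins by GFP to DsRed ratio, PSI derived from sequencing read proportions per bin multiplied by bin number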
# stated conditions: c terminus: a fixed tail appended

construct sequence: LTHFSRRYCQCRPDDSTSEDGIHT [N12R]
protein stability index: 3.21
--
construct sequence: LTHRSRRYCQCNPDDSTSEDGIHT [F4R]
protein stability index: 3.33
--
construct sequence: LTHFSRRYCQCNPADSTSEDGIHT [D14A]
protein stability index: 2.09
--
construct sequence: LTHFSRRYCQCNVDDSTSEDGIHT [P13V]
protein stability index: 3.11
--
construct sequence: KTHFSRRYCQCNPDDSTSEDGIHT [L1K]
protein stability index: 3.49
--
construct sequence: LTHFSRRYCQCNPDDTTSEDGIHT [S16T]
protein stability index: 2.94
--
construct sequence: LTVFSRRYCQCNPDDSTSEDGIHT [H3V]
protein stability index: 3.69
--
construct sequence: LTHFSRRYCQCIPDDSTSEDGIHT [N12I]
protein stability index: 2.77
--
construct sequence: LTHFSRRYCQCNPDDSTSEDSIHT [G21S]
protein stability index: 3.64
--
construct sequence: LTHFSRRYWQCNPDDSTSEDGIHT [C9W]
protein stability index: 3.57
--
construct sequence: LTHFSRRYCMCNPDDSTSEDGIHT [Q10M]
protein stability index: 2.19
--
construct sequence: PTHFSRRYCQCNPDDSTSEDGIHT [L1P]
protein stability index: 3.96
--
construct sequence: LTHFVRRYCQCNPDDSTSEDGIHT [S5V]
protein stability index: 2.67
--
construct sequence: LTHFSRRYCQCVPDDSTSEDGIHT [N12V]
protein stability index: 3.11
--
construct sequence: LTHFSRRYCQCNPDDSTSEDHIHT [G21H]
protein stability index: 3.34
--
construct sequence: LTHFSRRSCQCNPDDSTSEDGIHT [Y8S]
protein stability index: 3.93
--
construct sequence: LTHFSRRYCQCNPDDSTSEDYIHT [G21Y]
protein stability index: 2.68
--
construct sequence: LTHYSRRYCQCNPDDSTSEDGIHT [F4Y]
protein stability index: 2.85
--
construct sequence: LTHFSRRYCQCNPDDSTSMDGIHT [E19M]
protein stability index: 1.94
--
construct sequence: LTHHSRRYCQCNPDDSTSEDGIHT [F4H]
protein stability index: 4.51
--
construct sequence: LTHFSRRYCQCNPDDCTSEDGIHT [S16C]
protein stability index: 2.75
--
construct sequence: LTHFSRRYCQCFPDDSTSEDGIHT [N12F]
protein stability index: 2.69
--
construct sequence: LQHFSRRYCQCNPDDSTSEDGIHT [T2Q]
protein stability index: 2.87
--
construct sequence: LTHFSRRHCQCNPDDSTSEDGIHT [Y8H]
protein stability index: 3.88
--
construct sequence: LTHFSRRYCQCNPDDVTSEDGIHT [S16V]
protein stability index: 3.15
--
construct sequence: LTHFSRRYCTCNPDDSTSEDGIHT [Q10T]
protein stability index: 3.35
--
construct sequence: LTHFSRRYCQCNPDDSTSEDGHHT [I22H]
protein stability index: 3.7
--
construct sequence: LTHFSRRYCQCNPDDSNSEDGIHT [T17N]
protein stability index: 3.6
--
construct sequence: LTHFSRRYIQCNPDDSTSEDGIHT [C9I]
protein stability index: 3.96
--
construct sequence: LTHFSRRYCQCNPDDSTSEDGFHT [I22F]
protein stability index: 2.72
--
construct sequence: LTHFSRRYCQCNPKDSTSEDGIHT [D14K]
protein stability index: 2.49
--
construct sequence: LTHFSRRYGQCNPDDSTSEDGIHT [C9G]
protein stability index: 4.15
--
construct sequence: LTHFSRRYCQCQPDDSTSEDGIHT [N12Q]
protein stability index: 3.13
--
construct sequence: LTHFSRRYCQDNPDDSTSEDGIHT [C11D]
protein stability index: 4.31
--
construct sequence: LTHFSRRYCSCNPDDSTSEDGIHT [Q10S]
protein stability index: 2.55
--
construct sequence: LTHFSRRYCQCNPDDSTSEDKIHT [G21K]
protein stability index: 2.95
--
construct sequence: LTHFSRRYNQCNPDDSTSEDGIHT [C9N]
protein stability index: 4.09
--
construct sequence: LTHFSRRYTQCNPDDSTSEDGIHT [C9T]
protein stability index: 4.12
--
construct sequence: LTHFSRRYCQCNPDDSKSEDGIHT [T17K]
protein stability index: 3.6
--
construct sequence: LTTFSRRYCQCNPDDSTSEDGIHT [H3T]
protein stability index: 3.28
--
construct sequence: LTHFSRRYCQCNPDDSTSDDGIHT [E19D]
protein stability index: 3.34
--
construct sequence: LTHFSRRYCQCNPDGSTSEDGIHT [D15G]
protein stability index: 2.61
--
construct sequence: LTHFSRRYCGCNPDDSTSEDGIHT [Q10G]
protein stability index: 3.21
--
construct sequence: LTHFSRRYCQCNPDDSTGEDGIHT [S18G]
protein stability index: 2.93
--
construct sequence: LTHFSRRYCVCNPDDSTSEDGIHT [Q10V]
protein stability index: 2.9
--
construct sequence: LTIFSRRYCQCNPDDSTSEDGIHT [H3I]
protein stability index: 2.83
